biological target: human GLP-1R (Homo sapiens, UniProt P43220, G168S); test: CHO GLP-1R Clone H6—Assay 1: HTRF cAMP cell-based functional agonist assay (high GLP-1R density); settings: read-out: Assay 1 EC50; CHO GLP-1R Clone H6, cAMP HTRF; geometric mean
Sequence (P43220 24-463 G168S limits assumed): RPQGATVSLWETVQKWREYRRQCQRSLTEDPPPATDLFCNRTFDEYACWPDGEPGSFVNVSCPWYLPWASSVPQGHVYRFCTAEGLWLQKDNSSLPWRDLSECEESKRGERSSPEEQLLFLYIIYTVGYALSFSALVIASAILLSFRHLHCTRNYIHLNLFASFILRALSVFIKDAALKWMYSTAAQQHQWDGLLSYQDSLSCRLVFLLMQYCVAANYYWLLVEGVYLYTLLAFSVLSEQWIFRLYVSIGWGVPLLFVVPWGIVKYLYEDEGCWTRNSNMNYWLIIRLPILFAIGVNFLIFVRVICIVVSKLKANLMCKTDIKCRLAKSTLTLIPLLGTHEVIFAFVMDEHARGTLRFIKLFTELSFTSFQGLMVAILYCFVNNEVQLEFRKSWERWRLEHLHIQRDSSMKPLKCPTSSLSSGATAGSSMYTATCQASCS
Measurement Name: EC50 (nM)

Examples with answers:
| Compound | EC50 [nM] |
| --- | --- |
| COCCn1c(CN2CCC(c3cccc(OCc4ccc(Cl)cc4F)n3)CC2)nc2ccc(C(=O)O)c(F)c21 | 5.8 |
| Cc1nc(Cn2c(CN3CCC(c4cccc(OCc5ccc(Cl)cc5F)n4)CC3)nc3ccc(C(=O)O)cc32)c(C)o1 [Example 11A-55] | 520 |
| Cn1ccnc1Cn1c(CN2CCC(c3cccc(OCc4ccc(Cl)cc4F)n3)CC2)nc2ccc(C(=O)O)cc21 [Example 10A-38] | 130 |
| N#Cc1ccc(COc2nc(C3CCN(Cc4nc5ccc(C(=O)O)cc5n4C[C@@H]4CCO4)CC3)ccc2F)cc1 [Example 10A-55] | 1.2 |
| Cc1nc(C(C)n2c(CN3CCC(c4cccc(OCc5ccc(Cl)cc5F)n4)CC3)nc3ccc(C(=O)O)cc32)n[nH]1 (centres unmarked) [Example 11A-67] | 9300 |
| CCn1cncc1Cn1c(CN2CCC(c3cccc(OCc4ccc(C#N)cc4F)n3)CC2)nc2ccc(C(=O)O)cc21 [Example 10A-66] | 0.39 |

I. O=C(O)c1ccc2nc(CN3CCC(c4cccc(OCc5ccc(Cl)cc5F)n4)CC3)n(Cc3cn[nH]c3)c2c1 [Example 11A-15]
II. C[C@H]1CN(c2cccc(OCc3ccc(C#N)cc3F)n2)CCN1Cc1nc2ccc(C(=O)O)cc2n1C[C@@H]1CCO1 [Example 10A-47]
Endpoint returns whichever of I and II has the numerically higher EC50. Answer = label. I

1. O=C(O)c1ccc2nc(CN3CCC(c4cccc(OCc5ccc(Cl)cc5F)n4)CC3)n(CCn3cncn3)c2c1 [Example 11A-17]
2. O=C(O)c1ccc2nc(CN3CCC(c4cccc(OCc5ccc(Cl)cc5F)n4)CC3)n(CCc3c[nH]cn3)c2c1 [Example 11A-41]
Endpoint returns whichever of 1 and 2 has the numerically higher EC50. Answer = label. 2
(2: 190 nM, 1: 11 nM)
